All values here come from patent US20240158515A1.

Listing of entries alongside the reported log10 koff.
Biological target: T1, cynomolgus FGFR3b expressed with a C-terminal myc-myc-hexahistidine tag (mfFGFR3b.mmH) (cynomolgus)
T1 construct: also called REGN3521; mf FGFR3b ecto (R357G)(E23-G377;R357G).mmH
T1 chain: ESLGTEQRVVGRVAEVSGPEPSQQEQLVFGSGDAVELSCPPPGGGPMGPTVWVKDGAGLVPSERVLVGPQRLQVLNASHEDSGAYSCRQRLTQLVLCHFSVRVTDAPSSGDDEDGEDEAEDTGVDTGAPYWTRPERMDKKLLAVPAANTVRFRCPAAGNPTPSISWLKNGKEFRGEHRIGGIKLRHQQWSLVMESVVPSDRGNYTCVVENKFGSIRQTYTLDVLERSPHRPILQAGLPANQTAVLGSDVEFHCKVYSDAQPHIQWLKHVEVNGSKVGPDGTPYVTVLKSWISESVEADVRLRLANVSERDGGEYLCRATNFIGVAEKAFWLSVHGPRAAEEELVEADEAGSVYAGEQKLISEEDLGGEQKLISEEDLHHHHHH
Experiment: SPR Biacore, mAb captured on anti-hFc, 25C
// stored as log10 of koff expressed in s⁻¹

The following binders have reported results that may help.
Looking for the measured log10 koff of H4H30063P (antibody, human IgG4 S228P, kappa, V domains shown, HCVR 2, LCVR 10; also called REGN15684) VH: QVQLQESGPGLVKPSETLSLTCTVSGDSINSYFWSWIRQLPGKELEWIGHIYSSGSTRYNPSLQSRVTISIDTSKNQFSLKLSSVTAADTAVYYCARGASAVDYWGQGTLVTVSS VL: EIVLTQSPGTLSLSPGERATLSCRTSQSISSGYLAWYQQKPGQAPRLLIYGASRRATGIPDRFSGSGSGTDFTLTISRLEPEDFVVYYCQQYGSSPYTFGQGTKLEIKR , can you help?
-4.38

Looking for the measured log10 koff of H4H30061P (antibody, human IgG4 S228P, kappa, V domains shown) VH: EVQLVESGGGLAQPGGSLKLSCEASGFTFSDSAMHWVRQASGKGLEWVGRIRSKANSYATGYAASVKGRFTISRDDSKNMAFLEMNSLKTEDTAVYYCLRQTYGDPWGQGTLVTVSS VL: DVVMTQSPLSLSVTLGQPASISCRSSLSLVYSDGNNYLNWFQQRPGQSPRRLLYKVFNRDSGVPDRFSGSGSGTDFTLKISRVEAEDVGVYYCMQGTHWPWTFGQGTKVEIKR , can you help?
-4.01

Looking for the measured log10 koff of H4H30071P (antibody, human IgG4 S228P, kappa, V domains shown, HCVR 42, LCVR 50) VH: QVQLQQSGPGLVKPSQTLSLTCAISGDSVSRNSAAWNWIRQSPSSGLEWLGRTYYRSKWFYDYAISVKSRITVNPDTSKNQFSLHLNSVTPEDTAVYYCARGYGGYEDYFDYWGQGTLVTVSS VL: DIQMTQSPSSVSASVGDRVTITCRASQGISSWLAWYQQKPGKAPKLLIYGASSLQSGVPSRFSGSGSGTDFTLTISSLQPEDFATYFCQQGSSFPYTFGQGTKLEIKR , can you help?
-4.65

Looking for the measured log10 koff of H4H30045P (antibody, human IgG4 S228P, kappa, V domains shown, HCVR 179, LCVR 187) VH: QVQLVQSGAEVKKPGASVKVSCKTSGYRFVNYGFSWVRQAPGQGLEWMGWISPYNGNTNYIQNLQDRITMTTDTSTNTAYMELTNLRSDDTAVYYCATLTGVHFDYWGQGTLVTVSS VL: AIQMTQSPSSLSASVGDRVTITCRASQGIRNDLGWYQQKPGKAPNLLIFETSRLQSGVPSRFSGSGSGTDFTLTINSLQPEDFATYYCLQDYNYPWTFGQGTKVEIKR , can you help?
-2.05

Further cases:
Looking for the measured log10 koff of H4H30076P (antibody, human IgG4 S228P, kappa, V domains shown) VH: EVQLVESGGGLVQPGGSLRLSCAASGFTVSSNYMSWVRQAPGKGLEWVSIIYSGGHTYYSDSVKGRFTISRHNSKNTLYLQMNSLRGGDTAVYYCARGYTSGWYGFDFWGQGTLVTVSS VL: DIQMTQSPSSVSASVGDRVTITCRASQGISTWLAWYQQKPGKAPKLLIYAASSLQSGVPSRFSGTGSGTDFTLTISSLQPEDFATYYCQQTNSFPWTFGQGTKVEIKR , can you help?
-4.48
